FYI, the data here is from patent US20170050957A1.

- Test system: Key Broadleaf Weed and Crop Species
- TEST_PROTOCOL: Post-emergent Test II herbicidal activity (Table 15)
- Assay type: in vivo
- RUN_PARAMETERS: Brassica napus, post-emergence, 336 h, oilseed rape, canola (Brassica napus), 140 g ai/ha, 14 d, read-out: Visual Growth Reduction (%) 14 Days After Application, BRSNN
Listing of recorded pest or weed control at 140 g/ha by entry.

These recorded examples may help you get a feel for the data.
SMILES_INPUT: COC(=O)c1nc(-c2ccc3ccoc3c2F)nc(N)c1OC
OBSERVED_MEASUREMENT: 95 to 100%

SMILES_INPUT: COC(=O)c1nc(-c2cccc3ccsc23)cc(N)c1Cl
OBSERVED_MEASUREMENT: 60 to 74%

SMILES_INPUT: COC(=O)c1nc(-c2cc3sccc3cc2F)c(F)c(N)c1Cl
OBSERVED_MEASUREMENT: 0 to 29%

SMILES_INPUT: COC(=O)c1nc(-c2ccc3[nH]ccc3c2)c(F)c(N)c1Cl
OBSERVED_MEASUREMENT: 0 to 29%

Measured pest or weed control at 140 g/ha of COC(=O)c1nc(-c2c(F)cc3cc[nH]c3c2F)cc(N)c1Cl : 95 to 100%

Summary for this compound, COC(=O)c1nc(-c2cc3[nH]ccc3cc2F)c(F)c(N)c1Cl : pest or weed control at 140 g/ha is 30 to 44%

Per the record, COC(=O)c1nc(-c2ccc3c(N(C)C)noc3c2)c(F)c(N)c1Cl has pest or weed control at 140 g/ha of 0 to 29%

Just so you know, measured pest or weed control at 140 g/ha for COC(=O)c1nc(-c2ccc3sccc3c2)c(Cl)c(N)c1Cl came out at 0 to 29%

// sample COC(=O)c1nc(-c2ccc3cc[nH]c3c2F)nc(N)c1Cl , its pest or weed control at 140 g/ha was 95 to 100%

Short answer for Nc1c(F)c(-c2ccc(Cl)c3occc23)nc(C(=O)O)c1Cl : pest or weed control at 140 g/ha was 60 to 74%

Input COc1c(N)nc(-c2ccc3ccsc3c2)nc1C(=O)O . Output pest or weed control at 140 g/ha: 95 to 100%

Value of pest or weed control at 140 g/ha reported for the compound COC(=O)c1nc(-c2ccc3[nH]ncc3c2)c(F)c(N)c1Cl is 0 to 29%

Lab book: pest or weed control at 140 g/ha of Nc1cc(-c2ccc3cc[nH]c3c2F)nc(C(=O)O)c1Cl noted as 95 to 100%

Measured pest or weed control at 140 g/ha of COC(=O)c1nc(-c2cccc3[nH]ccc23)c(F)c(N)c1Cl : 0 to 29%

Note to self: pest or weed control at 140 g/ha recorded for COC(=O)c1nc(-c2ccc3cn[nH]c3c2)cc(N)c1Cl was 60 to 74%

Just so you know, measured pest or weed control at 140 g/ha for COC(=O)c1nc(-c2ccc3cc[nH]c3c2F)nc(N)c1OC came out at 95 to 100%
